Values from patent US10130619B2

Below, each entry is listed alongside its reported Ki.
# TGT: UniProt Q9Y5S8
# Sequence (Q9Y5S8 whole entry): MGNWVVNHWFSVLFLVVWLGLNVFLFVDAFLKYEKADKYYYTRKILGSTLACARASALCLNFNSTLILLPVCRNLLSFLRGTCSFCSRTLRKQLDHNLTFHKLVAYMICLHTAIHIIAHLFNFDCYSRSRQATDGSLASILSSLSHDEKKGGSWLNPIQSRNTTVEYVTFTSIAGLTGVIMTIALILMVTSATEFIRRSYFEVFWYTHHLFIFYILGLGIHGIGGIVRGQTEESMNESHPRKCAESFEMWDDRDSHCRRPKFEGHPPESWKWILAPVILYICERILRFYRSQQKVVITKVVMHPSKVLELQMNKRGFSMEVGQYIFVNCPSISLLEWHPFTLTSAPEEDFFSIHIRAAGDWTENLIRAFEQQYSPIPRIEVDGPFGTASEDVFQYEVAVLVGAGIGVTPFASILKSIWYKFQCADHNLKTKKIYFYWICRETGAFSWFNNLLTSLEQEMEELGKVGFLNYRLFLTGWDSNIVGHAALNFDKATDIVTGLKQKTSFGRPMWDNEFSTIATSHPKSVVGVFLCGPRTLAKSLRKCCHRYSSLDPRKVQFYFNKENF
# Sequence (P13498 whole entry partner): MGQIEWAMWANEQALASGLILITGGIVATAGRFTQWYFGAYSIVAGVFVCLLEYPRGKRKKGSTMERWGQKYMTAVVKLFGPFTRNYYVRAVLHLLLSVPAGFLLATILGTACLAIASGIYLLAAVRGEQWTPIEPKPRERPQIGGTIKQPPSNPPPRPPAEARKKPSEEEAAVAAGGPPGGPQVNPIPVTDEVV
# ASSAY SUMMARY: ROS production measurement on hNOX1 membranes (Amplex Red fluorescence assay, assay 1)
# CONDITION SUMMARY: assay 1: membranes from CHO cells overexpressing hNox1, Amplex Red/HRP fluorescence, NADPH 30 μM; non linear regression (GraphPad Prism); read-out: Nox1 inhibitory constant Ki

[
  {
    "COMPOUND": "COc1cc(C(=O)Nc2nnc(-c3ccncc3)s2)ccc1CN(C)c1ccccn1",
    "TGT": "UniProt Q9Y5S8",
    "Ki, nM": 93
  },
  {
    "COMPOUND": "CCC(Oc1ccc(C(=O)Nc2nnc(-c3ccncc3)s2)cn1)c1ccccc1 (centres unmarked)",
    "TGT": "UniProt Q9Y5S8",
    "Ki, nM": 71
  },
  {
    "COMPOUND": "CC(Oc1ccc(C(=O)Nc2nnc(-c3ccncc3)s2)cc1OCCN(C)C)c1ccccc1 (centres unmarked)",
    "TGT": "UniProt Q9Y5S8",
    "Ki, nM": 37
  },
  {
    "COMPOUND": "C[C@H](Oc1ncc(C(=O)Nc2nnc(-c3ccncc3)s2)cc1NCCN1CCOCC1)c1ccccc1",
    "TGT": "UniProt Q9Y5S8",
    "Ki, nM": 72
  },
  {
    "COMPOUND": "COc1cc(C(=O)Nc2nnc(-c3ccncc3)s2)ccc1OCc1ccn(C)n1",
    "TGT": "UniProt Q9Y5S8",
    "Ki, nM": 95
  },
  {
    "COMPOUND": "COc1cc(C(=O)Nc2nnc(-c3ccncc3)s2)ccc1O[C@H](CN1CCOCC1)c1ccccc1",
    "TGT": "UniProt Q9Y5S8",
    "Ki, nM": 89
  },
  {
    "COMPOUND": "COc1cc(C(=O)Nc2nnc(-c3ccncc3)s2)ccc1OCc1ccc(F)cc1",
    "TGT": "UniProt Q9Y5S8",
    "Ki, nM": 14
  },
  {
    "COMPOUND": "COc1cc(C(=O)Nc2nnc(-c3ccncc3)s2)ccc1Cn1ccc2ccccc21",
    "TGT": "UniProt Q9Y5S8",
    "Ki, nM": 35
  },
  {
    "COMPOUND": "COc1cc(C(=O)Nc2nnc(-c3ccncc3)s2)ccc1OC1COc2ccccc21 (centres unmarked)",
    "TGT": "UniProt Q9Y5S8",
    "Ki, nM": 38
  },
  {
    "COMPOUND": "CC(Oc1ccc(C(=O)Nc2nnc(-c3ccncc3)s2)cc1OCC1CCNCC1)c1ccccc1 (centres unmarked)",
    "TGT": "UniProt Q9Y5S8",
    "Ki, nM": 18
  },
  {
    "COMPOUND": "COc1cc(C(=O)Nc2nnc(-c3ccncc3)s2)ccc1OC1CCCc2ccccc21 (centres unmarked)",
    "TGT": "UniProt Q9Y5S8",
    "Ki, nM": 38
  },
  {
    "COMPOUND": "C[C@H](Oc1ncc(C(=O)Nc2nnc(-c3ccncc3)s2)cc1NCC1CCN(C)CC1)c1ccccc1",
    "TGT": "UniProt Q9Y5S8",
    "Ki, nM": 19
  },
  {
    "COMPOUND": "COCC(Oc1ccc(C(=O)Nc2nnc(-c3ccncc3)s2)cc1OC)c1ccccc1 (centres unmarked)",
    "TGT": "UniProt Q9Y5S8",
    "Ki, nM": 55
  },
  {
    "COMPOUND": "C[C@H](Oc1ncc(C(=O)Nc2nnc(-c3ccncc3)s2)cc1OCC1CCOCC1)c1ccccc1",
    "TGT": "UniProt Q9Y5S8",
    "Ki, nM": 38
  },
  {
    "COMPOUND": "C[C@H](Oc1ncc(C(=O)Nc2nnc(-c3ccncc3)s2)cc1NCC1CCOCC1)c1ccccc1",
    "TGT": "UniProt Q9Y5S8",
    "Ki, nM": 18
  },
  {
    "COMPOUND": "COc1cc(C(=O)Nc2nnc(-c3ccncc3F)s2)ccc1O[C@@H](CN(C)C)c1ccccc1",
    "TGT": "UniProt Q9Y5S8",
    "Ki, nM": 22
  },
  {
    "COMPOUND": "COc1cc(C(=O)Nc2nnc(-c3ccncn3)s2)ccc1O[C@@H](C)c1ccccc1",
    "TGT": "UniProt Q9Y5S8",
    "Ki, nM": 110
  }
]
